Tested Target: T1, Purified recombinant human CD26 (rhDipeptidyl peptidase IV), R&D Systems CAT #1180-SE (human, UniProt P27487 29-766)
T1 construct: Bought recombinant protein; also called hu-CD26; soluble human CD26
T1 sequence (P27487 29-766 limits assumed): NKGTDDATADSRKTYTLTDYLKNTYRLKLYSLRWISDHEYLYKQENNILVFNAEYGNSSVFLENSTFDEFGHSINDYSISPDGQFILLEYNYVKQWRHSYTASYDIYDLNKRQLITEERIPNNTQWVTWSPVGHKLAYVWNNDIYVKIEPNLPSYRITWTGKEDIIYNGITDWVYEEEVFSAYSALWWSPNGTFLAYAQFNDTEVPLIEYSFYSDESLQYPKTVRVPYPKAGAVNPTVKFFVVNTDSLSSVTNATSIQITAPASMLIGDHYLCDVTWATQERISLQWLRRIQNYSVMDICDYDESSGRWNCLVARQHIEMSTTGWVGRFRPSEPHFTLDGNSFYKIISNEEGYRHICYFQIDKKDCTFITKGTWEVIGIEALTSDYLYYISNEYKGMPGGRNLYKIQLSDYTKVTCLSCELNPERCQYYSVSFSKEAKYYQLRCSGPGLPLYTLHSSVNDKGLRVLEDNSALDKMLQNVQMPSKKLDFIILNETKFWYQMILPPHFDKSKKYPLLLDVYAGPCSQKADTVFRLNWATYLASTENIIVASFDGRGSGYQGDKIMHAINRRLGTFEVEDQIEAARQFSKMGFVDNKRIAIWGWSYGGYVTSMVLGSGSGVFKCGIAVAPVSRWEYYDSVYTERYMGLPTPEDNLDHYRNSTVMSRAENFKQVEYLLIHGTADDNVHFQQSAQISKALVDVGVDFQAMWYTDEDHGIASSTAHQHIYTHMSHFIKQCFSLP
Experiment Summary: SPR (Biacore), Fab
Property Name: Kd (nM)
Write down the numeric answer in nM and omit the unit.

# Binder, Observed
records = [
    ("Fab comprising X376 VL and CM03 VH (Fab, V domains shown, Fab made in E. coli) VH: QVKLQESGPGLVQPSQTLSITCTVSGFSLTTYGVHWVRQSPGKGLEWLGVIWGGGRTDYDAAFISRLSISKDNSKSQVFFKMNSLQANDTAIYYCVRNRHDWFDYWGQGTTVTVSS VL: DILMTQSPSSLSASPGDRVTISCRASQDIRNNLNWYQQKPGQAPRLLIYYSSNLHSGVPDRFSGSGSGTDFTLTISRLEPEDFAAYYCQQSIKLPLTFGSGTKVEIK", 2.31),
    ("Fab comprising X378 VL and CM03 VH (Fab, V domains shown, Fab made in E. coli) VH: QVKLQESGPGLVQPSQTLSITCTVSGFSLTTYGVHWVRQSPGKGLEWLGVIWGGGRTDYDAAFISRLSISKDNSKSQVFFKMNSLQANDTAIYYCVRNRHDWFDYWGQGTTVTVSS VL: DIEMTQSPSSLSASAGERVTISCRASQGIRNSLNWYQQKPGQAPRLLIYYSSNLQTGVPSRFSGSGSGTDFTLTISRLQAEDFATYYCQQSNKLPFTFGSGTKVEIK", 2.92),
    ("Fab comprising X380 VL and CM03 VH (Fab, V domains shown, Fab made in E. coli) VH: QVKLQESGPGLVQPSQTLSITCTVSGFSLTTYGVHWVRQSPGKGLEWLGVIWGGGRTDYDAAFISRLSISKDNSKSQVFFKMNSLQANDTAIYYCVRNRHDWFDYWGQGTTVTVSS VL: EIEMTQSPSSLSVSAGERATISCSASQDIRNSLNWYQQKPGQAPRLLIYYSSNLHTGVPARFSGSGSGTDFTLTISRLEPEDVAIYYCQQSNKLPLTFGSGTKVEIK", 2.33),
]

Now for another entry.
// query Given the binder Fab comprising X377 VL and CM03 VH (Fab, V domains shown, Fab made in E. coli; also called X377 Fab) VH: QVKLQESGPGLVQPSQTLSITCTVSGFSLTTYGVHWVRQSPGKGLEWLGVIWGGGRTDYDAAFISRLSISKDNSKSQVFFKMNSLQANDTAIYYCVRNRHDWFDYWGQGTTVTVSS VL: EIELTQSPSSLSVSLGDRVTISCSASQDIRNNLNWYQQKPGQAPRLLIYYSSNLQTGVPARFSGSGSGTDFTLTISRLEPEDVAAYYCQQSIKLPFTFGSGTKVEIK , what is its reported Kd?
// result 1.88
